B1: Azoarcus group I ribozyme (parent)
chain: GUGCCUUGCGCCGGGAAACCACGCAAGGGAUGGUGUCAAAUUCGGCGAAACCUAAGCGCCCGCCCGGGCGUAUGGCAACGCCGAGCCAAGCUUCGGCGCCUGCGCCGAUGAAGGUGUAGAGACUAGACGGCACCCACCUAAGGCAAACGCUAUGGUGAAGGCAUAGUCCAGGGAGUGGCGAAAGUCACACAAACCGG

- Variants of: B1
- METHOD DESCRIPTION: reverse-splicing fitness (ratio to wild type); higher = more active; in vitro selection; Mg2+ level not given
QUANTITY NAME: reverse-splicing fitness
// return just the number, without any unit appended

Kindly note the recorded reverse-splicing fitness for C82U A111C A120G A145U C150U C169U , which is 0.00803

Entry C82A A111U A120G C150A C169U U176G — recorded reverse-splicing fitness = 0.00816

Measured reverse-splicing fitness, C82G A111U A145C C150A : 0.0198

The recorded reverse-splicing fitness for entry C82A A111C C150U C169A U176G equals 0.00801
